Origin of measurements: the supplement of paper PMC6555819

Documented PBM binding z-score across a set of sequences
tested on: LXRb homodimer (NR concentration 270 nM); assay: PBM binding z-score (relative to random genomic background probes); higher = stronger binding; sequences stand for … in GC…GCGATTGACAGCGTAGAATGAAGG
Reported endpoint: PBM binding z-score

| Seq | Numeric value |
| --- | --- |
| GCGACTGGGGCATCAGCGGGTTACCATAACTTAA | -0.992 |
| TCTCGGAGGACACGAAAGGTCAGAGTTCGACATC | 0.134 |
| CCTGCTATGTCATGGTCAGCTAATCTACAGTATG | -0.226 |
| AATTCAGGGTCATCGTAGGCCAGAGTACGCACAG | 2.29 |
| AGAATGAGGTTATTAAGATCAGTGAATTGCGGTC | 0.0793 |
| AATACACGGTCACTAGGCCAGAGTAGGTACGAAT | 0.449 |
| CCTCGGAGGACAACAGGAGGTCAGAGTTGCCAGA | -0.486 |
| ATATGTGGGTTAAGGGTCATTCAGGTTGGTTCGC | 2.59 |
| AGAACGAGGGCACGCTGAGTTGATAGCTGAGTAG | -0.95 |
| AATACAGGGTCATCGTTGGCCAGAGTACGCACAG | 1.5 |
| AGAATGAGGTTATACGTAGATCAGGGTAGAAAGT | 0.246 |
| GGAACGAGGGCAAAGTCGATAGCATCTGTCGACG | -0.476 |
| GCTATTAGTTGAAAGGGCATCCGAATGATTCTCG | 0.0114 |
| TCTTGTATATCAAAGGTTAAGAAAGCCGAAGCCT | 0.723 |
| CGTATTAGTTGACCATAAGGGCAACCGAAGCTCG | 0.134 |
| CGAAATAGGTCAGAACAGGACAGTGAAGGATGAT | 0.228 |
| CCTACTGGGCCAAGAAGGTCATTGATGCCGATAA | -0.675 |
| AGTCAAAGTTTAGGACGAGGTAACGTAAAGCACG | -0.175 |
| CACCCTAGGTCAGGGCCAGTATAGGAGGAACGTT | -0.00593 |
| TCATATATGTAATACAGGTGAAAGTCGGCATCTA | 0.395 |
| TCTTGTAGATCAAAGGTTAAGAGAGCCGAAGCCT | -0.272 |
| TAGCCTAGGTCAGATCGGGCCATTATACGCTATA | -0.132 |
| TCGAGTAGGTTACGGGCATTCAGAATGGCGTCGA | -1.41 |
| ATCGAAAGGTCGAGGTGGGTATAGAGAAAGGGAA | 0.942 |
| CAAACTAGGTCACGAAAGGACAAAGTCGAATGAC | 0.368 |
| GTACCAATGTGAATAGGTCGTTGATGAGTAGGCG | -0.467 |
| ACTAGCAGGCCCAGGGTCACTCAAGATTAGTCCG | -0.913 |
| TCGAGTAGGTTACCAAAGGGGCATTCAGCTTTCT | -0.557 |
| CGAACTAGGTCAAGGACAGTCAATCTCCGCACGC | -0.248 |
| CCAGACAGGTGAAAGGTGACTCAGTCTGGTACGC | -0.308 |
| CAAACTAGGTCACGAAAGGTGAAAGTCGAATGAC | 0.569 |
| CCTACTGGGCCATTCAGAGGTCATGGATCATATG | -0.202 |
| CCACGGAGGACAACAGGAGGTCAGAGCTGCCAGA | -0.198 |
| ACAGACAGGTGAGTGACGGTAACTCAGCTGGACG | -0.746 |
| ATCTCTACGTAACCAAGTTCAGTGAATGCCGAAC | 1.1 |
| TTACCAAGGTGATCTGAGGTCGTTGATCCAACTC | -0.164 |
| TCTGCTAGGTCAACGATGGTTAGCTAATCTGCTA | -0.085 |
| ACTAGCACGCCAAGTTTGGGTCACTCAAACAAAG | -0.337 |
| CCTACTGGCCCAAAGGTCATTGATTCCAATGCTC | 1.23 |
| CGTCCAAGGTCATCAGGTCAGTGAAAGCGACGTG | 0.684 |
| CGAACTAGGTCAGAACAGGACAGTGAGGGATGAT | -0.376 |
| AGAACAAGGGCACGCTGAGTTGATAGCAGAGTAG | -0.878 |
| CCAGACATGTGAAAGGTAACTCAGTCTGGTACGC | 0.186 |
| CCTACTGGGCCAAAGGTTATTGATTCCAATGCTC | -0.363 |
| TCGAGTAGGTTAGGGGCATTTAGAATGGCGTCGA | 0.134 |

====

system: PPARg:RXRa 90nM:30nM, anti-RXR (NR concentration 90 nM, RXRa partner concentration 30 nM); assay: PBM binding z-score (relative to random genomic background probes); higher = stronger binding; sequences stand for … in GC…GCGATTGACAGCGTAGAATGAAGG

| Seq | PBM binding z-score |
| --- | --- |
| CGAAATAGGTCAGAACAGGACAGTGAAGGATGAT | 3.59 |
| AGTCGAAGTTCACTAGGTAACGTAAGATTCAGCT | 2.44 |
| CCATACAGGTGAGAAGGTAACTCAGCCTCGATTA | 1.26 |
| GCTCGGAGGGCAAGGTCAGAGCTTTGTCCGTAGA | 0.771 |
| CGACCTAGGTCAAGGACAGTGAATCTCCGCACGC | 1.86 |
| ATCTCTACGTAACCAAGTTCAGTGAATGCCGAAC | 0.36 |
| ACAGACAGGTGATGCAGGTAACTCAGGCTATCAT | -0.256 |
| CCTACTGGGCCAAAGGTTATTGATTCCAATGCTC | 10.5 |
| TCATATCGGTAAATGCTAGGTGAAAGTCCGATCT | 2.84 |
| TGTTAAAGTTCAAAGGTAACGTAAGTATCCACAC | 6.36 |
| TCTGACAGGTGAAGGTAACTCAGGTACGCAGTCG | 2.32 |
| AATACCGGGTCATCGTAGGCCAGAGTACGCACAG | 3.89 |
| CCTACTGGGCCATCTGGTCATTGATATCAACGTT | 1.69 |
| ACAGACACGTGAGTGAAGGTAACTCAGCTGGACG | -0.63 |
| AATACAGGGTCATCGTAGGCCAGAGAACGCACAG | 5.08 |
| CCTCGGGGGACAACAGGAGGTCAGAGCTGCCAGA | 1.17 |
| AGAATGAGGTTAAGATCAGGTAAACAGAATACAT | 1.75 |

====

test system: LXRa homodimer (NR concentration 270 nM); assay: PBM binding z-score (relative to random genomic background probes); higher = stronger binding; sequences stand for … in GC…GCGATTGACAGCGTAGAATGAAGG
PBM binding z-score values, listed per item
Reported endpoint: PBM binding z-score

| Seq | Reported endpoint | Numeric value |
| --- | --- | --- |
| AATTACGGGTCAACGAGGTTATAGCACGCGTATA | PBM binding z-score | 3.47 |
| AGTCAAAGTTCATCTCGGTAACGTAAGATATGCT | PBM binding z-score | 5.38 |
| CCTAGCAGGCCACTCTGGGTCACTCAAGGCTTGA | PBM binding z-score | 0.221 |
| AGAATGAGATTATACGTAGATCAGGGAAGAAAGT | PBM binding z-score | -0.134 |
| GGAACGAGGGCTAGTTGATAGCAGAGTTTGATGG | PBM binding z-score | -0.679 |
| CCTACTGGGCCATTCAGAGATCATTGATCATATG | PBM binding z-score | -0.224 |

====

system: PPARg:RXRa 30nM:10nM, anti-RXR (NR concentration 30 nM, RXRa partner concentration 10 nM); test: PBM binding z-score (relative to random genomic background probes); higher = stronger binding; sequences stand for … in GC…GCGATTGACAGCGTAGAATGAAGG

| Seq | PBM binding z-score |
| --- | --- |
| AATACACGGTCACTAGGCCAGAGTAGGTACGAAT | 0.885 |
| ATACCAAGGTGATCGTGACGTCGTTGATACTAAC | -0.0759 |
| GGAACGAGGGCATTAGAGTTGATAGCATGGCGAT | 0.105 |
| GCTGCTATGTCAGGTTGGTCAGCTAACGGGTACG | -0.739 |
| AGTCAAAGTTCACTAGGTAACGTATGATTCAGCT | 3 |

====

test system: PPARg:RXRa (NR concentration 180 nM, RXRa partner concentration 90 nM); assay: PBM binding z-score (relative to random genomic background probes); higher = stronger binding; sequences stand for … in GC…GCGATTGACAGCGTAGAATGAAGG
Below, each of the sequences is paired with its reported PBM binding z-score value.

| Seq | PBM binding z-score |
| --- | --- |
| CCTACTGTGCCATCAGGTCATTGATATCAACGTT | 2.29 |
| TCATATAGGTAAATGCAAGGTGAAAGTCCGATCT | 1.03 |
| TCCTATAGGTAAACAGGTGAAAGTCCGTAAGTTA | 1.63 |
| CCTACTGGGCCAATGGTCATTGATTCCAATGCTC | 4.15 |
| CTCGAAAGGTCGTGCCCAGGTGAGTATACCAAAC | 2.54 |
| TGAATGAGATTAAAGATCAGGGAACGTGGCGTCG | 1.02 |
| CCAGACAGGTGAGAGGGTAACTCAGCCTCGATTA | 1.99 |
| CTACCAAGGTGAACAAGGTCGTGGATTACTATTC | 1.5 |
| TGGATGAGGTTATAAGATCAGGGAACGTTGCAAA | 0.897 |
| AGTCAAAGTTCACTTGGTAACGTAAGATTCAGCT | 5.08 |
| CGAACTAGGTCAGAACAGGACAGTGAAGGATGAT | 4.94 |
| TCGTATAGGTAATACAGGTGAAAGTCGGCATCTA | 0.665 |
| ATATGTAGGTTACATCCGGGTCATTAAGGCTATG | 6.02 |
